Taken from ChEMBL document CHEMBL1201862.

# Tested on: OVCAR-8
# MEASUREMENT_PROTOCOL: NCI tumour cell line growth inhibition, 48 h
The source made the active and inactive calls. Cut-off read from the data, not from the text of the source: active = GI50 up to about 1.1 µM and inactive = higher.
Catalogue of compounds with associated GI50

[
  {
    "COMPOUND": "C/C(CC(=O)CCC(=O)Nc1cccc(C(F)(F)F)c1)=N\\NC(=O)NN",
    "SYSTEM_UNDER_TEST": "OVCAR-8",
    "GI50": "> 100 µM (inactive)"
  },
  {
    "COMPOUND": "CC(=O)CCNc1ccc(-c2cc(-c3ccc(N(C)C)cc3)nc3ccc4ccccc4c23)cc1",
    "SYSTEM_UNDER_TEST": "OVCAR-8",
    "GI50": "> 100 µM (inactive)"
  },
  {
    "COMPOUND": "O=C(NN1C(=O)C=CC1=O)c1ccccc1Nc1ccccc1C(=O)NN1C(=O)C=CC1=O",
    "SYSTEM_UNDER_TEST": "OVCAR-8",
    "GI50": "> 100 µM (inactive)"
  },
  {
    "COMPOUND": "OC1c2ccccc2CCC1C(O)(C(F)(F)F)C(F)(F)F (stereo not drawn)",
    "SYSTEM_UNDER_TEST": "OVCAR-8",
    "GI50": "> 100 µM (inactive)"
  },
  {
    "COMPOUND": "CCCCCCc1cc2cc(C(=O)Nc3ccccc3)c(=N)oc2cc1O",
    "SYSTEM_UNDER_TEST": "OVCAR-8",
    "GI50": "3.93 µM (inactive)"
  }
]

Now look at this one.
Request - read-out GI50 | tested on OVCAR-8 | compound `Cn1c(=O)nc2n(-c3cccc(Cl)c3)c3ccccc3nc-2c1=O`
18 µM (inactive)

====

# Test system: LOX IMVI
# MEASUREMENT_PROTOCOL: NCI tumour cell line growth inhibition, 48 h
Active and inactive are the calls of the source. Cut-off read from the data, not from the text of the source: active = GI50 up to about 1.1 µM and inactive = higher.
// reported GI50 for each item listed

Example entries and their recorded answers appear below.
[
  {
    "COMPOUND": "O=C(O)C(CSC(c1ccccc1)(c1ccccc1)c1ccccc1)/N=C/c1cccs1 (stereo not given)",
    "PROPERTY_NAME": "GI50",
    "RESULT": "4.34 µM (inactive)"
  },
  {
    "COMPOUND": "CCOC(=O)[C@H]1CSC[C@@H](C(=O)OC)N1",
    "PROPERTY_NAME": "GI50",
    "RESULT": "> 100 µM (inactive)"
  },
  {
    "COMPOUND": "CC(=O)NNc1nc(C)c(C(=O)/C=C/c2ccc(N(C)C)cc2)s1",
    "PROPERTY_NAME": "GI50",
    "RESULT": "> 100 µM (inactive)"
  },
  {
    "COMPOUND": "CCOC(=O)c1ccc(/N=C\\c2ccc(N(CCC#N)CCC#N)cc2)cc1",
    "PROPERTY_NAME": "GI50",
    "RESULT": "44.2 µM (inactive)"
  },
  {
    "COMPOUND": "Nc1ccc2c(c1)N(C(=O)c1cc3cc(NC(=O)c4cc5ccccc5o4)ccc3[nH]1)CC2CCl (stereo not given)",
    "PROPERTY_NAME": "GI50",
    "RESULT": "0.0398 µM (active)"
  },
  {
    "COMPOUND": "O=C(NCCCCCCCCCCCCNC(=O)c1cnc2ccccc2n1)c1cnc2ccccc2n1",
    "PROPERTY_NAME": "GI50",
    "RESULT": "39.8 µM (inactive)"
  },
  {
    "COMPOUND": "COc1ccc(C2=NOP(c3ccccc3)(c3ccccc3)(c3ccccc3)C2)cc1",
    "PROPERTY_NAME": "GI50",
    "RESULT": "10.1 µM (inactive)"
  },
  {
    "COMPOUND": "COc1oc(C2C/C(=C/C(C)=C/C(C)=C/C(C)=C/c3ccc([N+](=O)[O-])cc3)CO2)c(C)c(=O)c1C (stereo not given)",
    "PROPERTY_NAME": "GI50",
    "RESULT": "4.02 µM (inactive)"
  }
]

Given the entry O=C(O)C(SC(=S)c1ccc(C(=S)SC(C(=O)O)c2ccccc2)cc1)c1ccccc1 (stereo not given) , report its measured GI50.
50.6 µM (inactive)
